This collection of values is drawn from patent US20220273659A1.

biological target: CDK6 (Homo sapiens, UniProt Q00534); experiment: In vitro kinase inhibition IC50, luminescence (ADP Glo), retinoblastoma substrate; conditions: read-out: CDK6/D1 IC50
Sequence (Q00534 whole entry): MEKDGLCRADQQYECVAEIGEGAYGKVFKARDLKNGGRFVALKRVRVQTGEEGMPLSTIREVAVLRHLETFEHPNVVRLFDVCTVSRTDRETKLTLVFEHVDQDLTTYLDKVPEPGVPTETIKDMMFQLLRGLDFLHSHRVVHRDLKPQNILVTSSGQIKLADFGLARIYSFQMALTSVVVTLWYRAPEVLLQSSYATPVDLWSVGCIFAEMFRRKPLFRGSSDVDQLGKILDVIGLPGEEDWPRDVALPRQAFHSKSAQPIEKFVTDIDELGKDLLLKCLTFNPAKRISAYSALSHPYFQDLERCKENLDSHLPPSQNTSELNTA
Sequence (P24385 whole entry partner): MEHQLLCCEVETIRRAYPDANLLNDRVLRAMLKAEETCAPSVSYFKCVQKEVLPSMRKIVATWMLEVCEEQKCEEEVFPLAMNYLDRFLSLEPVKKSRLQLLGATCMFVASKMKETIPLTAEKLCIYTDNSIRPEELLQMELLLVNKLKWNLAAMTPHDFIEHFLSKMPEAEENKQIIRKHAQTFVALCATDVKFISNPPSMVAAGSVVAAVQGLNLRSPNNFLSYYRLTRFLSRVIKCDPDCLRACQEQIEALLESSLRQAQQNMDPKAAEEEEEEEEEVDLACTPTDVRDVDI
readout name: IC50 (nM)

// below: answered molecules
>  <molecule>
CS(=O)(=O)N1CC[C@H](Nc2ncc3cc(C#N)c(=O)n(C4CCCC4)c3n2)[C@H](F)C1

>  <readout name>
IC50

>  <quantitative readout>
12

$$$$
>  <molecule>
N#Cc1cc2cnc(Nc3ccc4c(c3)CCNC4)nc2n(-c2c(F)cccc2F)c1=O

>  <readout name>
IC50

>  <quantitative readout>
147

$$$$
>  <molecule>
Cn1ccc(S(=O)(=O)N2CCC(Nc3ncc4cc(C(F)F)c(=O)n([C@H]5C[C@@H]6CC[C@H]5C6)c4n3)CC2)n1

>  <readout name>
IC50

>  <quantitative readout>
11

$$$$

A. CS(=O)(=O)N1CCC(Nc2ncc3cc(C#N)c(=O)n(CC4CCCCC4)c3n2)CC1
B. CC(C)S(=O)(=O)N1CCC(Nc2ncc3cc(C#N)c(=O)n(C4CCCC4)c3n2)CC1
Which entry has a larger number for IC50, A or B ? // return label of chosen record
A

---

test system: MCF-7 breast adenocarcinoma cells; assay: Cancer cell proliferation assay, single agent (cell viability); assay type: cell-based; conditions: Homo sapiens, MCF7, Table 4; Rb positive; treatment 144 Hr with medium change at 72 Hr; Cell Titer-Glo or resazurin
pIC50: −log10 of the molar value.
readout name: pIC50

// below: answered molecules
>  <molecule>
N#Cc1cc2cnc(Nc3ccc(N4CCNCC4)c(Cl)c3)nc2n(C2CCCC2)c1=O

>  <pIC50>
6.96

$$$$
>  <molecule>
N#Cc1cc2ccc(Nc3ccc(N4CCNCC4)cc3)nc2n(C2CCCC2)c1=O

>  <pIC50>
5.71

$$$$
>  <molecule>
CN(C)CCN1CCc2ccc(Nc3ncc4cc(C#N)c(=O)n(C5CCCC5)c4n3)cc2C1

>  <pIC50>
6.23

$$$$

1. N#Cc1cc2cnc(Nc3cccc(S(=O)(=O)N4CCOCC4)c3)nc2n(C2CCCC2)c1=O
2. N#Cc1cc2cnc(Nc3ccc4c(c3)CCNC4)nc2n(C2CCCC2)c1=O
Input pair: 1 , 2 . Output: entry with lower pIC50. // return label of chosen record
1

a. N#Cc1cc2cnc(Nc3ccc(N4CCNCC4)cc3)nc2n(C2CCc3ccccc32)c1=O (stereo not shown)
b. N#Cc1cc2ccc(Nc3ccc4c(c3)CCNC4)nc2n(C2CCCC2)c1=O
Which entry has a larger number for pIC50, a or b ? // return label of chosen record
a
(a: 6.15, b: 5.79)

I. CS(=O)(=O)N1CCC(Nc2ncc3cc(C#N)c(=O)n(C4CCCCC4)c3n2)CC1
II. CS(=O)(=O)N1CCC(Nc2ncc3cc(C#N)c(=O)n(C4CCCC4)c3n2)CC1
Input pair: I , II . Output: entry with lower pIC50. // return label of chosen record
II

P. CCC(C)n1c(=O)c(C#N)cc2cnc(NC3CCN(S(C)(=O)=O)CC3)nc21 (stereo not shown)
Q. N#Cc1cc2cnc(Nc3ccc(N4CCN5CCCCC5C4)c(F)c3)nc2n(C2CCCC2)c1=O (stereo not shown)
Which entry has a larger number for pIC50, P or Q ? // return label of chosen record
P

A. CS(=O)(=O)N1CCC(Nc2ncc3cc(C#N)c(=O)n([C@@H]4C[C@H]5CC[C@@H]4C5)c3n2)CC1
B. CS(=O)(=O)N1CCC(Nc2ncc3cc(C#N)c(=O)n([C@H]4C[C@@H]5CC[C@H]4C5)c3n2)CC1 (racemic) [Compound No. 353]
C. CN1CCN(S(=O)(=O)c2cccc(Nc3ncc4cc(C#N)c(=O)n(C5CCCC5)c4n3)c2)CC1
Give the ascending ranking of the items by reported pIC50. Write the labels out in the order the request specifies.
C, B, A

I. CS(=O)(=O)N1CCC(Nc2cc3c(cn2)cc(C#N)c(=O)n3C2CCCC2)CC1
II. CN(C)CCCN1CCc2cc(Nc3ncc4cc(C#N)c(=O)n(C5CCCC5)c4n3)ccc2C1
III. CS(=O)(=O)N1CCC(Nc2ncc3cc(C#N)c(=O)n([C@H]4CCC(F)(F)C4)c3n2)CC1
Give the ascending ranking of the items by reported pIC50. Write the labels out in the order the request specifies.
III, I, II

A. CN1CCC(n2cc(Nc3ncc4cc(C#N)c(=O)n(C5CCCC5)c4n3)cn2)CC1
B. N#Cc1cc2cnc(Nc3ccc4c(c3)NC(=O)C4)nc2n(C2CCCC2)c1=O
C. CN(C)CCN1Cc2cc(Nc3ncc4cc(C#N)c(=O)n(C5CCCC5)c4n3)ccc2C(C)(C)C1
D. N#Cc1cc2cnc(Nc3ccc(N4CCNCC4)c(F)c3)nc2n(C2CCCC2)c1=O
E. CS(=O)(=O)N1CC[C@H](Nc2ncc3cc(C#N)c(=O)n(C4CCCC4)c3n2)[C@H](F)C1
Give the ascending ranking of the items by reported pIC50. Write the labels out in the order the request specifies.
B, C, A, E, D

P. CN(C)C1Cc2ccc(Nc3ncc4cc(C#N)c(=O)n(C5CCCC5)c4n3)cc2C1 (stereo not shown)
Q. N#Cc1cc2cnc(Nc3ccc4c(c3)C(=O)NCC4)nc2n(C2CCCC2)c1=O
Input pair: P , Q . Output: entry with lower pIC50. // return label of chosen record
Q
